Tested on: RARa:RXR (NR concentration 270 nM, RXRa partner concentration 90 nM)
TEST_NAME: PBM binding z-score (relative to random genomic background probes); higher = stronger binding; sequences stand for … in GC…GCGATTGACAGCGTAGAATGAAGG
Measured PBM binding z-score accompanies every entry in the list below.
Returns: the value as a bare number; no unit string appended.

These recorded examples may help you get a feel for the data.
SEQ_TEXT: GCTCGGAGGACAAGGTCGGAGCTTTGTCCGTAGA
TARGET_OR_TEST_SYSTEM: RARa:RXR (NR concentration 270 nM, RXRa partner concentration 90 nM)
PBM binding z-score: 0.146

SEQ_TEXT: CCTATTAGTCGACCATAAGGGCAACCGAAGCTCG
TARGET_OR_TEST_SYSTEM: RARa:RXR (NR concentration 270 nM, RXRa partner concentration 90 nM)
PBM binding z-score: 0.415

SEQ_TEXT: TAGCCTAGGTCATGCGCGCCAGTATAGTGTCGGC
TARGET_OR_TEST_SYSTEM: RARa:RXR (NR concentration 270 nM, RXRa partner concentration 90 nM)
PBM binding z-score: 2.62

SEQ_TEXT: TCTTGTAGATCGAAGGTTAAGAAAGCCGAAGCCT
TARGET_OR_TEST_SYSTEM: RARa:RXR (NR concentration 270 nM, RXRa partner concentration 90 nM)
PBM binding z-score: 0.948

SEQ_TEXT: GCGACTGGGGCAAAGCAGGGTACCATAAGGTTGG
TARGET_OR_TEST_SYSTEM: RARa:RXR (NR concentration 270 nM, RXRa partner concentration 90 nM)
PBM binding z-score: 0.315

# get_value(readout='PBM binding z-score', item= "TCAGAAAGGTGAAGGTAACTCAGGTACGCAGTCG" )
1.88

# get_value(readout='PBM binding z-score', item= "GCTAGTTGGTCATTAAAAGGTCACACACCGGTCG" )
6.14

# get_value(readout='PBM binding z-score', item= "CCTTACGGGTCACTGACAGGTTATAACATTTGGA" )
4.67

Source listed as the supplement of paper PMC6555819.
